# TESTED_ON: T1, Rhesus macaque CD4-HIS (Acro Biosystems, Cat. CD4-C52H7) (rhesus macaque, UniProt P16003 26-390)
# T1 construct: Bought reagent; also called Rhesus CD4; rhesus CD4-HIS; not shown: His tag
# ASSAY_METHOD_TEXT: BLI (Octet Red384); Ab on anti-mouse Fc (AMC) sensor; rhesus CD4-HIS 100/50/25 nM; global 1:1 fit;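 further: antibodies loaded at 10 µg/mL, an unrelated mouse-derived antibody served as internal reference, curves fit over association and dissociation phases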
Measured Response accompanies every entry in the list below.
Write the value as a bare number.

# example entries with known answers
BINDER: 75110_06G04A (antibody, V domains shown, Tested as antibody purified from AlivaMab Mouse hybridoma supernatant (human variable domains, kappa; mouse Fc, captured on anti-mouse IgG Fc sensors); also called ADS75110 purified AMM Ab) VH: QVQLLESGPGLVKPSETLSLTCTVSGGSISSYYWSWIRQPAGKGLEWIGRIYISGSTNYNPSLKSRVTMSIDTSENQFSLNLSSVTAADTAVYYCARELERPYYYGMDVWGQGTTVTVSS VL: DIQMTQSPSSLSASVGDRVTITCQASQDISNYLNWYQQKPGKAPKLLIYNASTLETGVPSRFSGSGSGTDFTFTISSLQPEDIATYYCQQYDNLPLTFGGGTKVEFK
Response: 0.05

BINDER: 75110_07J02A (antibody, V domains shown, Tested as antibody purified from AlivaMab Mouse hybridoma supernatant (human variable domains, kappa; mouse Fc, captured on anti-mouse IgG Fc sensors); also called ADS75110 purified AMM Ab) VH: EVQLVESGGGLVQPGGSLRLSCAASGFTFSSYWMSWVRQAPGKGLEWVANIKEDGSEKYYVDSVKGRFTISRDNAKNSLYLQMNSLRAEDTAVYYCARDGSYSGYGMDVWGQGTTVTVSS VL: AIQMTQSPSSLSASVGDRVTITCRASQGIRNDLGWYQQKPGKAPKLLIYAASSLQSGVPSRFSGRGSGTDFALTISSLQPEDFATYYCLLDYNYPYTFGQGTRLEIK
Response: 0.14

BINDER: 75110_12H19A (antibody, V domains shown, Tested as antibody purified from AlivaMab Mouse hybridoma supernatant (human variable domains, kappa; mouse Fc, captured on anti-mouse IgG Fc sensors); also called ADS75110 purified AMM Ab) VH: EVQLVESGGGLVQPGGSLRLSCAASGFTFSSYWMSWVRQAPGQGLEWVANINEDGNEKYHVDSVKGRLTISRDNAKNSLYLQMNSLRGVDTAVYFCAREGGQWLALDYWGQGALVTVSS VL: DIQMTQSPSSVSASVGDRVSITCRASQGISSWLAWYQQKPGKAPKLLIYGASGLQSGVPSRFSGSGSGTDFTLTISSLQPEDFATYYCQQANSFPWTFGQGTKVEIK
Response: 0.28

BINDER: 75110_14I16A (antibody, V domains shown, Tested as antibody purified from AlivaMab Mouse hybridoma supernatant (human variable domains, kappa; mouse Fc, captured on anti-mouse IgG Fc sensors); also called ADS75110 purified AMM Ab) VH: QVQLQESGPGLVKPSETLSLTCTVSNGSISSYYWSWIRQSAGKGLEWIGRIYTSGSTNYNPSLKSRVTMLVDTSKNQFSLKLSSVTAADTAVYYCARDREDYYYYGMDVWGQGTTVTVSS VL: DIQMTQSPSSLSASVGDRVTITCQASHDISNYLNWYQQKPGKAPKLLLYYASNLETGVPSRFSGSGSGTDFTFTITSLQPEDIGTYSCQQYDNLPLTFGGGTKVEIK
Response: 0.13

BINDER: 75110_07B16A (antibody, V domains shown, Tested as antibody purified from AlivaMab Mouse hybridoma supernatant (human variable domains, kappa; mouse Fc, captured on anti-mouse IgG Fc sensors); also called ADS75110 purified AMM Ab) VH: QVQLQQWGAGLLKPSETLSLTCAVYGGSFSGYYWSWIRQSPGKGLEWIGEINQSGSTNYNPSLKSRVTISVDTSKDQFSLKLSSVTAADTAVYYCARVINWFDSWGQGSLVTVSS VL: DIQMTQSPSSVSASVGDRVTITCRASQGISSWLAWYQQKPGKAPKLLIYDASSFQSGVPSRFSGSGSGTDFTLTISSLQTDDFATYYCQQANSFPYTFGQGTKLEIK
Response: 0.17

BINDER: 75110_06E14A (antibody, V domains shown, Tested as antibody purified from AlivaMab Mouse hybridoma supernatant (human variable domains, kappa; mouse Fc, captured on anti-mouse IgG Fc sensors); also called ADS75110 purified AMM Ab) VH: QVQLQESGPGLVKPSETLSLTCTVSGGSISNYFWSWIRQPAGKGLEWIGRIYSSGNTNYNPSLKSRVTMSVDTSKNQFSLKLSSVTAADTAVYYCARDREDYYYYGMDVWGQGTTVTVSS VL: DIQMTQSPSSLSASVGDRVTITCQASQDISNYLNWYQQKPGKAPKLLIYGASILETGVPSRFTGSGSGTDFTFTISSLQPEDIATYYCQQYDSLPITFGQGTRLEIK
Response: 0.1

BINDER: 75110_07H07A (antibody, V domains shown, Tested as antibody purified from AlivaMab Mouse hybridoma supernatant (human variable domains, kappa; mouse Fc, captured on anti-mouse IgG Fc sensors); also called ADS75110 purified AMM Ab) VH: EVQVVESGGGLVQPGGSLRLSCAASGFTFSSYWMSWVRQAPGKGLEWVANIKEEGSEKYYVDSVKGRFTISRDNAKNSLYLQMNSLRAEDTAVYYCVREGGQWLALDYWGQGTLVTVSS VL: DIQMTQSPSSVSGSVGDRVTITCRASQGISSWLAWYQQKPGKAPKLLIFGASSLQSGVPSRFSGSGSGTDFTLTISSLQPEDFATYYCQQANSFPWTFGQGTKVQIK
Response: 0.15

BINDER: 75110_08F20A (antibody, V domains shown, Tested as antibody purified from AlivaMab Mouse hybridoma supernatant (human variable domains, kappa; mouse Fc, captured on anti-mouse IgG Fc sensors); also called ADS75110 purified AMM Ab) VH: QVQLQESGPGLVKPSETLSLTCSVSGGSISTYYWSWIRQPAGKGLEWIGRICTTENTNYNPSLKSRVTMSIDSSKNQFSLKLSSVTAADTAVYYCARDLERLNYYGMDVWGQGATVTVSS VL: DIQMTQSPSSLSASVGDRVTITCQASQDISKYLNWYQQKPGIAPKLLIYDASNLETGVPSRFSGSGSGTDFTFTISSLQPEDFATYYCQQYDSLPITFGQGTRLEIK
Response: 0.22

What Response value was documented for this binder, 75110_08M20A (antibody, V domains shown, Tested as antibody purified from AlivaMab Mouse hybridoma supernatant (human variable domains, kappa; mouse Fc, captured on anti-mouse IgG Fc sensors); also called ADS75110 purified AMM Ab) VH: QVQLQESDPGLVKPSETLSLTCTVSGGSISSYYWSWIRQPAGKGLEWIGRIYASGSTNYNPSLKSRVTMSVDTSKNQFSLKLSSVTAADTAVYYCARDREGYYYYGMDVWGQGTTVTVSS VL: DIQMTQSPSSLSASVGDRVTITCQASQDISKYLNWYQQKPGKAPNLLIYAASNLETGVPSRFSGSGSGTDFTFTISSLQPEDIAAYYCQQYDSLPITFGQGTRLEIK ? 0.17

What Response value was documented for this binder, 75110_09G15A (antibody, V domains shown, Tested as antibody purified from AlivaMab Mouse hybridoma supernatant (human variable domains, kappa; mouse Fc, captured on anti-mouse IgG Fc sensors); also called ADS75110 purified AMM Ab) VH: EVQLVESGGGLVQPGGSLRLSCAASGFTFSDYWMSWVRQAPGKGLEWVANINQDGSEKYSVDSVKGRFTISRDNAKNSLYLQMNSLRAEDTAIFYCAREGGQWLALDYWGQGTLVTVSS VL: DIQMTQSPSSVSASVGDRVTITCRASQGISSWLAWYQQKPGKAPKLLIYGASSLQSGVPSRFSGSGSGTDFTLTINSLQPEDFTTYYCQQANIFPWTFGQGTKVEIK ? 0.27
